Consider the following compounds and their measured CC50 at 72 h readings.
# Procedure details: Cytotoxicity on THP-1 cell line (MTT)
# Assay type: cell-based
# Condition: human, THP-1 cells, THP1 cell line

Cn1c([N+](=O)[O-])cnc1COc1ccc(S(C)(=O)=O)cc1 [Fexinidazole sulfone, reference compound]    > 100 µM
COc1cccc2c1C(=O)c1c(O)c3c(c(O)c1C2=O)C[C@@](O)(C(=O)CO)C[C@@H]3O[C@H]1C[C@H](N)[C@H](O)[C@H](C)O1 [Doxorubicin, reference compound]    0.8 µM

// next item, CC50 at 72 h requested
Form: compound = O=[N+]([O-])c1c(CS(=O)(=O)CCC(F)(F)F)nc2c(Sc3ccc(Cl)cc3)cc(Cl)cn12 ; CC50 at 72 h = > 50 µM

The origin of these recorded values is paper PMC9415646.
